// data source = patent US20020177126A1

STUDY_TARGET: Bac-F (UniProt P03420 26-524)
Sequence (P03420 26-524): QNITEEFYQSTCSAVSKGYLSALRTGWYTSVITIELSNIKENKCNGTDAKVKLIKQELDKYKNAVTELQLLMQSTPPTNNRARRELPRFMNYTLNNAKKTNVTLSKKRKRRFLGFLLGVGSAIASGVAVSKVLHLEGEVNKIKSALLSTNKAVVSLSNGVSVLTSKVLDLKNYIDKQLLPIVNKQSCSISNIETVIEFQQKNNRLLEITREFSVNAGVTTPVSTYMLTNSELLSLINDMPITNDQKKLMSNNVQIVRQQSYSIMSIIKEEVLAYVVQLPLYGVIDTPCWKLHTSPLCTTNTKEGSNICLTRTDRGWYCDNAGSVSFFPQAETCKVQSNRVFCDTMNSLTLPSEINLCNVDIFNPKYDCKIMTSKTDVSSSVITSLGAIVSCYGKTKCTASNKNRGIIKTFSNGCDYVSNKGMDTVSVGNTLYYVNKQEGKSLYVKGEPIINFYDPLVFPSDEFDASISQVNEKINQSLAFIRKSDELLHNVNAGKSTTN
PROTOCOL_SUMMARY: BIAcore, Mab vs Bac-F, 1:1
Kindly apply the following: 1 if Kd is less than 0.1 nM, -1 in every other case.

Hello, is Kd of the following binder strictly smaller than 0.1 nM? A12a6 (monoclonal antibody) (antibody, V domains shown) VH: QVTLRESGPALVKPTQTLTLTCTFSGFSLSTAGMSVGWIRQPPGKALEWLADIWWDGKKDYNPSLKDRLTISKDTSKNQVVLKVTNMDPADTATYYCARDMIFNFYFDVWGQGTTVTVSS VL: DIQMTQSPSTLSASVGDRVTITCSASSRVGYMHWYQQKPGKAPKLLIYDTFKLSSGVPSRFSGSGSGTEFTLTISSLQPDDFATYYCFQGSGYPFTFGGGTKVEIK
1

Hello, is Kd of the following binder strictly smaller than 0.1 nM? A13c4 (monoclonal antibody) (antibody, V domains shown) VH: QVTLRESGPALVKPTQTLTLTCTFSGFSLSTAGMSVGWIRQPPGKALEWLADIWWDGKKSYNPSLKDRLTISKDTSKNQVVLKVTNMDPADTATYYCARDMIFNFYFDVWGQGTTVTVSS VL: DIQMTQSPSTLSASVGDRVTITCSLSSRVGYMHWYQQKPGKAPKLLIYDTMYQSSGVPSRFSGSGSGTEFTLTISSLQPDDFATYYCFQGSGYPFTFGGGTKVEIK
-1

Hello, is Kd of the following binder strictly smaller than 0.1 nM? P12f4 (monoclonal antibody) (antibody, V domains shown) VH: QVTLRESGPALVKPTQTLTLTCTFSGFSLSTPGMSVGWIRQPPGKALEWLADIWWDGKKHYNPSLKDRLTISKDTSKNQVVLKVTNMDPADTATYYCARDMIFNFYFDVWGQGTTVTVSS VL: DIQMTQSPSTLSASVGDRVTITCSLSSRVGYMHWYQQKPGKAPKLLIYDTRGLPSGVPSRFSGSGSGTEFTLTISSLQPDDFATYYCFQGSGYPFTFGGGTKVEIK
-1

Hello, is Kd of the following binder strictly smaller than 0.1 nM? A4B4 (monoclonal antibody) (antibody, V domains shown, also called A4B4/A4B4 (HC/LC)) VH: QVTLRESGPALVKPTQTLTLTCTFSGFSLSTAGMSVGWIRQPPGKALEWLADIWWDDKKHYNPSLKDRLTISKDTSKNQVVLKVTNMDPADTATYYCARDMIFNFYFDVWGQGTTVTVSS VL: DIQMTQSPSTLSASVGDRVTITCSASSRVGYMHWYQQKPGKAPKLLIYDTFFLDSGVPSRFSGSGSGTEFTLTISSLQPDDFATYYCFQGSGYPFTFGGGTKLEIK
1

Hello, is Kd of the following binder strictly smaller than 0.1 nM? P11d4 (monoclonal antibody) (antibody, V domains shown) VH: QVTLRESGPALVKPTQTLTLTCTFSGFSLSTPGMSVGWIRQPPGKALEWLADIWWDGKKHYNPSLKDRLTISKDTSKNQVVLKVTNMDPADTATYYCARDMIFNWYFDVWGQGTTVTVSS VL: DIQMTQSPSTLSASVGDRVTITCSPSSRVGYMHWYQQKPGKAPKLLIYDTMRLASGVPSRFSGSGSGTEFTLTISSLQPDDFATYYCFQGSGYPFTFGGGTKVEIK
-1
